The values you see were collected from the Immune Epitope Database (IEDB).

assay_target: HLA-B*15:01
test_method_notes: IEDB peptide-MHC binding, purified MHC/competitive/fluorescence; bounds were set here for any values at or beyond the usual limits of such assays
experimental_conditions: source organism: Vaccinia virus WR
quantity_measured: pIC50
Quick note: pIC50 values are minus log10 of concentrations in mol/L.

// fetch pIC50 given entry "RLPKRSVML"
4.90

====

assay_target: HLA-A*26:02
test_method_notes: IEDB peptide-MHC binding, purified MHC/direct/fluorescence; filed as Kd, often an IC50 or EC50 that approximates it; bounds were set here for any values at or beyond the usual limits of such assays
experimental_conditions: source organism: Influenza A virus H3N2
pKd: −log10 of the molar value.
quantity_measured: pKd

Give pKd for "DPKKTGGPI" tested on HLA-A*26:02.
≤ 4.70

====

assay_target: HLA-B*07:02
test_method_notes: IEDB peptide-MHC binding, purified MHC/direct/fluorescence; filed as Kd, often an IC50 or EC50 that approximates it; bounds were set here for any values at or beyond the usual limits of such assays
experimental_conditions: source organism: Tai Forest virus - Cote d'Ivoire, Cote d'Ivoire, 1994
quantity_measured: pKd
Quick note: pKd values are minus log10 of concentrations in mol/L.

Give pKd for "LPRERFRKT" tested on HLA-B*07:02.
6.75

====

assay_target: HLA-C*07:02
test_method_notes: IEDB peptide-MHC binding, purified MHC/direct/fluorescence; filed as Kd, often an IC50 or EC50 that approximates it; bounds were set here for any values at or beyond the usual limits of such assays
experimental_conditions: source organism: West Nile virus
quantity_measured: Kd (nM)
Expressed in nM, but write only the number.

// fetch Kd given entry "SYHDRRWCF"
17

====

assay_target: HLA-B*18:01
test_method_notes: IEDB peptide-MHC binding, purified MHC/competitive/fluorescence; filed as Kd, often an IC50 or EC50 that approximates it; bounds were set here for any values at or beyond the usual limits of such assays
experimental_conditions: source organism: Salmonella enterica subsp. enterica serovar Typhi str. CT18
pKd: −log10 of the molar value.
quantity_measured: pKd

// fetch pKd given entry "KSKPRIHGY"
≤ 4.70

====

assay_target: HLA-A*24:02
test_method_notes: IEDB peptide-MHC binding, purified MHC/competitive/fluorescence; bounds were set here for any values at or beyond the usual limits of such assays
experimental_conditions: source organism: Vaccinia virus Copenhagen
quantity_measured: IC50 (µM)
Expressed in µM, but write only the number.

// fetch IC50 given entry "LAKAIITPI"
6.28

====

assay_target: HLA-B*57:01
test_method_notes: IEDB peptide-MHC binding, purified MHC/direct/fluorescence; filed as Kd, often an IC50 or EC50 that approximates it; bounds were set here for any values at or beyond the usual limits of such assays
experimental_conditions: source organism: West Nile virus
quantity_measured: Kd

// fetch Kd given entry "FVDVGVSAL"
≥ 20 µM

====

assay_target: HLA-A*24:02
test_method_notes: IEDB peptide-MHC binding, purified MHC/competitive/fluorescence; filed as Kd, often an IC50 or EC50 that approximates it; bounds were set here for any values at or beyond the usual limits of such assays
experimental_conditions: source organism: West Nile virus
quantity_measured: pKd
Quick note: pKd values are minus log10 of concentrations in mol/L.

// fetch pKd given entry "SYHDRRWCF"
8.00

====

assay_target: HLA-A*31:01
test_method_notes: IEDB peptide-MHC binding, purified MHC/competitive/radioactivity; filed as Kd, often an IC50 or EC50 that approximates it; bounds were set here for any values at or beyond the usual limits of such assays
experimental_conditions: source organism: Vaccinia virus Copenhagen
quantity_measured: pKd
Quick note: pKd values are minus log10 of concentrations in mol/L.

// fetch pKd given entry "SSSLDQTHIK"
6.06

====

assay_target: HLA-A*29:02
test_method_notes: IEDB peptide-MHC binding, purified MHC/direct/fluorescence; filed as Kd, often an IC50 or EC50 that approximates it; bounds were set here for any values at or beyond the usual limits of such assays
experimental_conditions: source organism: Mammarenavirus juninense
quantity_measured: Kd (µM)
Expressed in µM, but write only the number.

Give Kd for "VSDRPVMRY" tested on HLA-A*29:02.
0.117

====

assay_target: HLA-A*69:01
test_method_notes: IEDB peptide-MHC binding, purified MHC/direct/fluorescence; filed as Kd, often an IC50 or EC50 that approximates it; bounds were set here for any values at or beyond the usual limits of such assays
experimental_conditions: source organism: Camelpox virus CMS
pKd: −log10 of the molar value.
quantity_measured: pKd

// fetch pKd given entry "YYKDDISYF"
≤ 4.70

====

assay_target: HLA-A*69:01
test_method_notes: IEDB peptide-MHC binding, purified MHC/competitive/fluorescence; filed as Kd, often an IC50 or EC50 that approximates it; bounds were set here for any values at or beyond the usual limits of such assays
experimental_conditions: source organism: Entamoeba histolytica HM-1:IMSS
pKd: −log10 of the molar value.
quantity_measured: pKd

// fetch pKd given entry "IEAKINVAD"
≤ 4.70

====

assay_target: HLA-A*68:02
test_method_notes: IEDB peptide-MHC binding, purified MHC/direct/fluorescence; filed as Kd, often an IC50 or EC50 that approximates it; bounds were set here for any values at or beyond the usual limits of such assays
experimental_conditions: source organism: Zaire ebolavirus
pKd: −log10 of the molar value.
quantity_measured: pKd

TPSHYSGNI; ≤ 4.70

Shift focus to the following entry.
// fetch pKd given entry "KQIPIWLPL"
≤ 4.70

====

assay_target: HLA-A*26:01
test_method_notes: IEDB peptide-MHC binding, purified MHC/direct/fluorescence; filed as Kd, often an IC50 or EC50 that approximates it; bounds were set here for any values at or beyond the usual limits of such assays
experimental_conditions: source organism: Mammarenavirus guanaritoense
pKd: −log10 of the molar value.
quantity_measured: pKd

// fetch pKd given entry "EFCDMLRLF"
≤ 4.70

====

assay_target: HLA-A*68:01
test_method_notes: IEDB peptide-MHC binding, purified MHC/competitive/radioactivity; filed as Kd, often an IC50 or EC50 that approximates it; bounds were set here for any values at or beyond the usual limits of such assays
experimental_conditions: source organism: Lymphocytic choriomeningitis virus (strain Traub)
pKd: −log10 of the molar value.
quantity_measured: pKd

// fetch pKd given entry "KCHDHYLCRH"
≤ 4.15

====

assay_target: HLA-A*01:01
test_method_notes: IEDB peptide-MHC binding, purified MHC/competitive/radioactivity; filed as Kd, often an IC50 or EC50 that approximates it; bounds were set here for any values at or beyond the usual limits of such assays
experimental_conditions: source organism: Mammarenavirus lassaense
pKd: −log10 of the molar value.
quantity_measured: pKd

// fetch pKd given entry "AGFVAGLTY"
≤ 4.45

====

assay_target: HLA-B*08:01
test_method_notes: IEDB peptide-MHC binding, purified MHC/competitive/fluorescence; bounds were set here for any values at or beyond the usual limits of such assays
experimental_conditions: source organism: Variola virus
quantity_measured: pIC50
Quick note: pIC50 values are minus log10 of concentrations in mol/L.

// fetch pIC50 given entry "ARKHHTKID"
4.38

====

Items are presented alongside their recorded Kd.
assay_target: HLA-B*53:01
test_method_notes: IEDB peptide-MHC binding, purified MHC/competitive/radioactivity; filed as Kd, often an IC50 or EC50 that approximates it; bounds were set here for any values at or beyond the usual limits of such assays
experimental_conditions: source organism: Dengue virus 3 Martinique/1243/1999
Expressed in nM, but write only the number.

Examples with answers:
TPTGTVMDI; 114
IGIGVLLTW; 1140
LPVCQSSSMR; 15500

Shift focus to the following entry.
Give Kd for "FPQSNAPIQD" tested on HLA-B*53:01.
1940

====

assay_target: HLA-B*15:17
test_method_notes: IEDB peptide-MHC binding, purified MHC/competitive/fluorescence; filed as Kd, often an IC50 or EC50 that approximates it; bounds were set here for any values at or beyond the usual limits of such assays
experimental_conditions: source organism: Vaccinia virus Tian Tan
pKd: −log10 of the molar value.
quantity_measured: pKd

// fetch pKd given entry "YYKDDISYF"
≤ 4.70

====

assay_target: HLA-A*03:01
test_method_notes: IEDB peptide-MHC binding, purified MHC/direct/fluorescence; filed as Kd, often an IC50 or EC50 that approximates it; bounds were set here for any values at or beyond the usual limits of such assays
experimental_conditions: source organism: Araucaria virus
quantity_measured: Kd

// fetch Kd given entry "FLAAECPFL"
≥ 20 µM

====

assay_target: HLA-A*11:01
test_method_notes: IEDB peptide-MHC binding, purified MHC/competitive/radioactivity; filed as Kd, often an IC50 or EC50 that approximates it; bounds were set here for any values at or beyond the usual limits of such assays
experimental_conditions: source organism: Lymphocytic choriomeningitis virus (strain Armstrong)
quantity_measured: Kd (µM)
Expressed in µM, but write only the number.

// fetch Kd given entry "STLLTWHMH"
0.258

====

assay_target: HLA-A*26:01
test_method_notes: IEDB peptide-MHC binding, purified MHC/direct/fluorescence; filed as Kd, often an IC50 or EC50 that approximates it; bounds were set here for any values at or beyond the usual limits of such assays
experimental_conditions: source organism: Variola virus
quantity_measured: Kd (nM)
Expressed in nM, but write only the number.

// fetch Kd given entry "YYKDDISYF"
579
